# TESTED TARGET: T1, hmm.hTfRC (REGN2431), human transferrin receptor extracellular domain with hexahistidine-myc-myc tag (human, UniProt P02786 89-760)
# T1 construct: Monomeric recombinant protein, 79210 g/mol; also called hTFR-mmh; His-myc-myc-hTFRC ecto
# T1 sequence (P02786 other isoform, or with tags, fused parts or gaps): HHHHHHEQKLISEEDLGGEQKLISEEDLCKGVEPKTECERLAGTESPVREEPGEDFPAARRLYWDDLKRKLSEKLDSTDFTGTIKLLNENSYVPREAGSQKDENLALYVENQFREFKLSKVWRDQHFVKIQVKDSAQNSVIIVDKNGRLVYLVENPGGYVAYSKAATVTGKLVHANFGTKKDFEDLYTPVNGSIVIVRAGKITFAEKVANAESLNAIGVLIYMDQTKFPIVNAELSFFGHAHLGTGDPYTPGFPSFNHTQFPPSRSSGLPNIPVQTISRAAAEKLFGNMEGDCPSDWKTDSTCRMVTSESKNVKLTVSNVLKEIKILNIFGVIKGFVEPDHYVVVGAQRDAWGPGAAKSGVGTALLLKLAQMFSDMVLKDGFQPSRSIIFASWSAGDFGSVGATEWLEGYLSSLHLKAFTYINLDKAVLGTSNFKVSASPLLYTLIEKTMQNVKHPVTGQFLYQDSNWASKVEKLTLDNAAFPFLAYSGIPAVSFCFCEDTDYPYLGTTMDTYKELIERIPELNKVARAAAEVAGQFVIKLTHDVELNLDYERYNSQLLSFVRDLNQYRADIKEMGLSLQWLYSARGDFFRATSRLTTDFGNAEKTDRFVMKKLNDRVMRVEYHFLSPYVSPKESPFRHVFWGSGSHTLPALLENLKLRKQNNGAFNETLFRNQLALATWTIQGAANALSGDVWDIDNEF
# PROTOCOL DESCRIPTION: SPR (Biacore), mAb captured on anti-human Fc, 100 nM hTFR-mmh, 25 C
# Description: Biacore binding kinetics assays were conducted for the interaction of 32 anti-human TfR IgG1 monoclonal antibodies from CHO supernatants with TfR reagents at 25° C. Equilibrium dissociation constants (KD) for the interaction of anti-TfR monoclonal antibodies with human and fascicularis monkey TfR ecto domain recombinant proteins were determined using a real-time surface plasmon resonance (SPR) based Biacore S200 biosensor. […]
ASSAY METRIC: t½ (h)
Numbers only, in h.

Given 69307 (antibody, human IgG1, kappa, V domains shown, Tested as bivalent human IgG1 from CHO primary supernatant) VH: EVQLVESGGGLVQPGGSLRLSCTASGFTFSNYWMTWVRQAPGKGLEWVANIKEDGSEKEYVDSVKGRFTISRDNAKNSLYLQMNSLRGEDTAVYYCARDGEQLVDYYYYYVMDVWGQGTTVTVSS VL: DIQMTQSPSSVSASVGDRVTITCRASQGISSWLAWYQQKPGKAPKLLIYAASSLQSGVPSRFSGSGSGTDFTLTISSLQPEDFATYYCQKADSLPYAFGQGTKLEIKR , respond with its t½.
4.52
